tested_system: T1, 4H607-bA
T1 chain: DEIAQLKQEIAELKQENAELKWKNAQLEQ
test_summary: two-hybrid library CCNG1;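 note: natural log of median RNA to DNA barcode read ratio; higher means stronger binding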
Catalogue of interaction score values
property_label: interaction score

[
  {
    "binder": "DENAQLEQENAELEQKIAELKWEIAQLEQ [4H1193-bA]",
    "property_label": "interaction score",
    "measured_number": -0.928
  },
  {
    "binder": "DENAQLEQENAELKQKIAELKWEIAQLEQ [4H1257-bA]",
    "property_label": "interaction score",
    "measured_number": -1.24
  },
  {
    "binder": "DKNAQLKQKIAELEQEIAELEWENAQLEQ [4H3843-bA]",
    "property_label": "interaction score",
    "measured_number": -0.651
  },
  {
    "binder": "DENAQLEQKIAELKQENAELKWEIAQLEQ [4H1369-bA]",
    "property_label": "interaction score",
    "measured_number": -1.2
  },
  {
    "binder": "DEIAQLEQKNAELKQEIAELKWKIAQLKQ [4H462-bA]",
    "property_label": "interaction score",
    "measured_number": -0.0392
  },
  {
    "binder": "DEIAQLEQKIAELKQKNAELEWEIAQLKQ [4H370-bA]",
    "property_label": "interaction score",
    "measured_number": -0.647
  },
  {
    "binder": "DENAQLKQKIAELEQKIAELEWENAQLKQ [4H1828-bA]",
    "property_label": "interaction score",
    "measured_number": -0.523
  }
]
